# Test system: human cervical carcinoma (HeLa) cells
# assayProtocol: MTT cell viability assay in HeLa cells with or without 450 nm irradiation
# Type: cell-based
# reportedConditions: HeLa cells under irradiation (450 nm, 1 h), MTT; read-out: IC50 (error)
valueType: IC50 (µM)
Value expressed in µM; do not type the unit.

compound: F[P-](F)(F)(F)(F)F.F[P-](F)(F)(F)(F)F.O.Oc1cccc(-c2cccc(O)n2)n1.[Ru+2].c1ccc(-c2ccccn2)nc1.c1ccc(-c2ccccn2)nc1 [[Ru(bpy)2(66′bpy(OH)2)]^2+, [Ru(bpy)2(66′bpy(OH)2)][PF6]2.H2O]
quantitativeResult: 88

Okay, next one:
For [Cl][Ru][Cl].c1ccc(-c2ccccn2)nc1.c1ccc(-c2ccccn2)nc1.c1ccc(-c2ccccn2)nc1 [[Ru(bpy)3]^2+, [Ru(bpy)3][Cl]2] , write its IC50.
152
